In this section we review reported inhibition values for a set of molecules.
- test details: inhibitors of intracellular T. cruzi growth, primary screen, luminescence, NIH3T3 host cells (AID 1885);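 also: signal also drops with host cell toxicity which is not excluded here; 0% = plate median of DMSO wells and 100% = zero luminescence signal; higher percent means less beta-gal luminescence so fewer parasites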
- measurement parameters: T. cruzi beta-gal in NIH3T3, luminescence, 90 h; active compounds read high; concentration not given here
About 4,400 (1.5%) of roughly 300,000 compounds were called active. Many of the other results were omitted from the sample, so actives are more common in it than they were.

Some molecules with known inhibition results, for comparison:
                                   molecule     reported_value
0  Cc1ccc(-n2nc3ccc(NC(=O)/C=C/c4ccco4)cc3n2)cc1C  -97.4% (inactive)
1         CC(C)(C)NCCCOc1ccc(Cl)cc1C(C)(C)C   33.9% (inactive)
2              CN(C)CCOc1ccc(Cl)cc1C(C)(C)C     57.6% (active)
3  O=C(N/N=C/c1sc(N2CCCCC2)nc1-c1cccs1)c1cccnc1       65% (active)
4  COC(=O)C(C)Sc1ccc2nnc(-c3cccc(F)c3)n2n1 (centres undefined)     19% (inactive)

Name the recorded inhibition for "O=C(NC1CCN(Cc2ccccc2)CC1)c1cc(Br)c(Br)[nH]1" . 70.3% (active)

Then what about the molecule "Fc1ccccc1N=C1Nc2cccc3cccc1c23" ? -4.12% (inactive)

Then what about the molecule Cc1ccc(N2CC(C(=O)Nc3cc(Cl)ccc3-n3cncn3)CC2=O)cc1 (centres undefined) ? -5.75% (inactive)

Then what about the molecule "CCOC(=O)C[C@H]1c2ccc(C(F)(F)F)cc2S(=O)(=O)N1c1ccccc1" ? -7.83% (inactive)

Then what about the molecule "Cc1c(Cl)cccc1NC(=S)N(Cc1ccccc1)Cc1cccnc1" ? 18.3% (inactive)

Then what about the molecule COCCN1C(=O)N(c2ccc(Cl)cc2)C(=O)C1CC(=O)Nc1cc(OC)cc(OC)c1 (centres undefined) ? -12.9% (inactive)

----------
- test details: inhibitors of intracellular T. cruzi growth, primary screen, luminescence, NIH3T3 host cells (AID 1885);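 also: signal also drops with host cell toxicity which is not excluded here; 0% = plate median of DMSO wells and 100% = zero luminescence signal; higher percent means less beta-gal luminescence so fewer parasites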
- measurement parameters: T. cruzi beta-gal in NIH3T3, luminescence, 90 h; active compounds read high; concentration not given here
Out of some 300,000 compounds screened, about 4,400 (1.5%) were called active. Many of the other results were omitted from the sample, so actives are more common in it than they were.
readout type: inhibition (%)
Respond with the bare value in %.

Some compounds with known inhibition results, for comparison:
>>> print(df.to_string())
                                   compound  reported_value
0  CCOc1ccc2nc(N(CCN(C)C)C(=O)c3ccc4ccccc4c3)sc2c1            26.5
1  CN1CCN(c2ccc(S(=O)(=O)N3CCCCC3)cc2NC(=O)Cc2ccccc2F)CC1            45.1
2  CN1CCc2nc(SC(C(=O)O)c3ccccc3)c(C#N)c(-c3cccs3)c2C1 (stereo unspecified)            64.4
3  CSCCC(NC(=O)COc1ccccc1)C(=O)OCCOc1ccc(F)cc1 (stereo unspecified)           -11.5

Name the recorded inhibition for "N#C/C(=C\c1ccccc1C(F)(F)F)C(=O)Nc1ccccc1F" . -1.24

Then what about the compound "COc1ccccc1C(=O)Nc1ccc(Nc2ccccc2)cc1" ? -9

Then what about the compound "COC(=O)C1=C[C@@H](C(=O)OC)[C@@H]2C3=C(C(=O)[C@]2(C)NC(=O)c2ccccc2)[C@H](C)n2c(=O)n(C)c(=O)n2[C@@H]3C1" ? 11.2

Then what about the compound "COc1ccc(NC(=O)CSc2nc(NS(=O)(=O)c3ccc(C)cc3)cc(=O)[nH]2)cc1" ? 7.86

Then what about the compound "CCc1ccccc1NC(=O)NCCN1CCCCC1" ? 1.39
